Reported IC50 values are given for each entry in this list.
# study system: JAK2 (Homo sapiens, UniProt O60674)
# Construct: endogenous in cells; mixed lysate 1:2
# Sequence (O60674 whole entry): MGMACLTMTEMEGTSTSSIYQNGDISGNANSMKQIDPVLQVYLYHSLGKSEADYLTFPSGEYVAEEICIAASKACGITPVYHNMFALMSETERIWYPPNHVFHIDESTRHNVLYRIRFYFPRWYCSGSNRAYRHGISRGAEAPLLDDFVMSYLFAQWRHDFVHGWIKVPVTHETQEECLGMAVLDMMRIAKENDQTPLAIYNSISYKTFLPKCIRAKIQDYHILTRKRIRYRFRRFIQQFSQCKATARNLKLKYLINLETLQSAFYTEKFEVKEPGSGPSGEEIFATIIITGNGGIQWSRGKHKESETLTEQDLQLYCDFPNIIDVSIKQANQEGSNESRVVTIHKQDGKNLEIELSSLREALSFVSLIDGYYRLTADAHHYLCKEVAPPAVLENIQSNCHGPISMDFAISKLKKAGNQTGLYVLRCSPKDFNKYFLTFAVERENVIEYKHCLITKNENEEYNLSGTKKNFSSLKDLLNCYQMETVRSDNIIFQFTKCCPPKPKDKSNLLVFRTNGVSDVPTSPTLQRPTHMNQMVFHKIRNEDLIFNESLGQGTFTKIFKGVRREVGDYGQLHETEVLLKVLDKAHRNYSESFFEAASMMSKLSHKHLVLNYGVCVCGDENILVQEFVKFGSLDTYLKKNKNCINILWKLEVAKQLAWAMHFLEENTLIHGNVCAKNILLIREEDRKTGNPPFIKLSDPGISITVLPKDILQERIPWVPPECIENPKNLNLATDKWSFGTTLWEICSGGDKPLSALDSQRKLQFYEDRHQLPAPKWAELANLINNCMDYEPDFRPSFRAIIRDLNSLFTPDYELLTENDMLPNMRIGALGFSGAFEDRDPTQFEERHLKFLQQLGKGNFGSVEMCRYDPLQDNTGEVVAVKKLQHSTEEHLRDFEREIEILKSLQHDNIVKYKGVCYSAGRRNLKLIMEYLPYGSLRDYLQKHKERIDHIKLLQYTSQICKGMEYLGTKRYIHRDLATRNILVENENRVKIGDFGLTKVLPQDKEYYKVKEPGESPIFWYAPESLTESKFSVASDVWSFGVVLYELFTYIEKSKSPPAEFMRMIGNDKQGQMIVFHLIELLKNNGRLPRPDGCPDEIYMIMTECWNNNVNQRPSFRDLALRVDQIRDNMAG
# experimental protocol: Kinobeads assay with immunodetection, JAK2
# conditions: mixed Molt4/Ramos lysate, read-out: Inhibition values (IC50) JAK2

Answered cases to consult:
1. Cn1cc(Nc2ncc(Cl)c(NC[C@@H]3CCCN3S(C)(=O)=O)n2)cn1	100 to 1000 nM
2. Cc1cnc(Nc2cnn(C)c2)nc1NC[C@@H]1CCCN1CCS(C)(=O)=O	1000 to 10000 nM
3. Cn1cc(Nc2ncc(Cl)c(NC[C@@H]3C[C@H](F)CN3CCS(C)(=O)=O)n2)cn1	100 to 1000 nM
4. Cc1cnc(Nc2cnn(C)c2)nc1NC[C@H]1CCCN1S(C)(=O)=O	100 to 1000 nM
5. Cn1cc(Nc2ncc(Cl)c(NC[C@H]3CCCN3C(=O)CCC#N)n2)cn1	100 to 1000 nM
6. CC(=O)N1CC[C@@H](CNc2nc(Nc3cnn(CCO)c3)ncc2Cl)C1	1000 to 10000 nM
7. C=CC(=O)N1CC[C@H](CNc2nc(Nc3cnn(CCO)c3)ncc2Cl)C1	1000 to 10000 nM

Consider the record given below.
For Cc1cnc(Nc2cnn(C)c2)nc1NC[C@H]1CCN(C(=O)CCC#N)C1 the compound record lists IC50 as 1000 to 10000 nM

----------
# study system: JAK2 (Homo sapiens)
# Construct: endogenous in cells; mixed lysate 1:2
# experimental protocol: Kinobeads assay with immunodetection, JAK2
# conditions: mixed Molt4/Ramos lysate, read-out: Inhibition values (IC50) JAK2
pIC50: −log10 of the molar value.
Reported pIC50 values are given for each entry in this list.

1) C=CC(=O)N1CCC[C@@H]1CNc1nc(Nc2cnn(CCO)c2)ncc1Cl [Example 4]	6.00 to 7.00
2) Cc1cnc(Nc2cnn(CC(F)F)c2)nc1NC[C@H]1CCN(C(=O)CC#N)C1 [Example 129]	5.00 to 6.00
3) CCN1CCC[C@H]1CNc1nc(Nc2cnn(C)c2)ncc1Cl [Example 61]	< 5.00
4) Cn1cc(Nc2ncc(Cl)c(NC[C@H]3CCN(CCS(C)(=O)=O)C3)n2)cn1 [Example 55]	6.00 to 7.00
5) C=CS(=O)(=O)N1CCCC[C@@H]1CNc1nc(Nc2cnn(C)c2)ncc1Cl [Example 45]	5.00 to 6.00

For Cn1cc(Nc2ncc(Cl)c(NC[C@H]3CCN(CCO)C3)n2)cn1 [Example 56] the compound record lists pIC50 as 5.00 to 6.00

----------
# study system: JAK2 (Homo sapiens, UniProt O60674)
# Construct: endogenous in cells; host or cells: Molt4 (ATCC CRL-1582) and Ramos (ATCC CRL-1596) cells; mixed lysate 1:2
# experimental protocol: Kinobeads assay with immunodetection, JAK2
# Format: binding
# conditions: mixed Molt4/Ramos lysate, read-out: Inhibition values (IC50) JAK2
readout: IC50

Answered cases to consult:
1) Cn1cc(Nc2ncc(Cl)c(NC[C@H]3CCN(S(C)(=O)=O)C3)n2)cn1	100 to 1000 nM
2) Cn1cc(Nc2ncc(Cl)c(NC[C@@H]3CCN(S(C)(=O)=O)C3)n2)cn1	1000 to 10000 nM
3) Cn1cc(Nc2ncc(Cl)c(NC[C@@H]3CCCN3CCS(C)(=O)=O)n2)cn1	< 100 nM

For Cn1cc(Nc2ncc(Cl)c(NC[C@H]3CCCN3C(=O)NC3CC3)n2)cn1 the compound record lists IC50 as 100 to 1000 nM

For Cn1cc(Nc2nccc(NC[C@H]3CCCN3C(=O)CC#N)n2)cn1 the compound record lists IC50 as 1000 to 10000 nM

For C=CC(=O)N1CCCC[C@H]1CNc1nc(Nc2cnn(CCO)c2)ncc1Cl the compound record lists IC50 as > 10000 nM

For CN1CCCC1CNc1nc(Nc2cnn(C)c2)ncc1Cl (stereo not drawn) the compound record lists IC50 as > 10000 nM

For CCNC(=O)N1CCC[C@@H]1CNc1nc(Nc2cnn(C)c2)ncc1Cl the compound record lists IC50 as 100 to 1000 nM

For Cc1cnc(Nc2cnn(CC(F)F)c2)nc1NC[C@H]1CCCN1C(=O)CC#N the compound record lists IC50 as 100 to 1000 nM

For Cc1cnc(Nc2cnn(CC(F)F)c2)nc1NC[C@@H]1CCCN1C(=O)CCC#N the compound record lists IC50 as 1000 to 10000 nM

For Cl.Cn1cc(Nc2ncc(F)c(NC[C@H]3CCCN3S(C)(=O)=O)n2)cn1 [Example 74, Hydrochloride] the compound record lists IC50 as 1000 to 10000 nM

----------
Reported IC50 values are given for each entry in this list.
# study system: JAK3 (Homo sapiens, UniProt P52333)
# Construct: endogenous in cells; mixed lysate 1:2
# Sequence (P52333 whole entry): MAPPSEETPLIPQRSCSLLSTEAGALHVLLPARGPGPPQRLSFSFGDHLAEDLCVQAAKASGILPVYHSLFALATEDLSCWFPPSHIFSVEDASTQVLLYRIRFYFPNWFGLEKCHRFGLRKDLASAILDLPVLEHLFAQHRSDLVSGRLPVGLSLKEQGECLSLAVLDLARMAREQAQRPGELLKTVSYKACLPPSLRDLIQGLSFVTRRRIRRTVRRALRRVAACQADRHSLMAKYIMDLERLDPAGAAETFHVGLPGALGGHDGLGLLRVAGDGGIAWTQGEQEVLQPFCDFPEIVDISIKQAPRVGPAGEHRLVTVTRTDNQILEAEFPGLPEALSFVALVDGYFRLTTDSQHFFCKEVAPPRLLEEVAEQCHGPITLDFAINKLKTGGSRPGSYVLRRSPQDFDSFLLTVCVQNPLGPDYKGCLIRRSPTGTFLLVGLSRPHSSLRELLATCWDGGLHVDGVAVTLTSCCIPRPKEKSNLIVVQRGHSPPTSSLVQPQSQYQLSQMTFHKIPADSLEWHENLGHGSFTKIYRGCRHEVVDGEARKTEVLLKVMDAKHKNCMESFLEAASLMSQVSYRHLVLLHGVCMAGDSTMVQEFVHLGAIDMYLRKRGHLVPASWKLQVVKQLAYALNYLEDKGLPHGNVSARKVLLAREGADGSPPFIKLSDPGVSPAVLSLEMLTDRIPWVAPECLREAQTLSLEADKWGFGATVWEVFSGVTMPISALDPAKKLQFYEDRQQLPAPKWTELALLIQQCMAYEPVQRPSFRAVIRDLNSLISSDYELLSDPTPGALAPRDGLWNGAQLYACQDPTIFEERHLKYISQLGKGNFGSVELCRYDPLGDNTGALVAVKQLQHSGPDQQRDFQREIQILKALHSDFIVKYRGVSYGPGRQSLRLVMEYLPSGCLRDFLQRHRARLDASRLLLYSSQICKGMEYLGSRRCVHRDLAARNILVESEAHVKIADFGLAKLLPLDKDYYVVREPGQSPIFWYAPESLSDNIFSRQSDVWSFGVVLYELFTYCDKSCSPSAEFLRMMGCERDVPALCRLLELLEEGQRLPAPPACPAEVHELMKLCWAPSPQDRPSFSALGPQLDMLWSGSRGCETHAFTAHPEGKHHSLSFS
# experimental protocol: Kinobeads assay with immunodetection, JAK3
# conditions: Kinobeads assay, mixed Molt4/Ramos lysate; read-out: Inhibition values (IC50) JAK3

Answered cases to consult:
1) Cc1cnc(Nc2cnn(CC(F)F)c2)nc1NC[C@H]1CCCN1C(=O)CC#N [Example 118]	100 to 1000 nM
2) Cc1cnc(Nc2cnn(C)c2)nc1NC[C@H]1CCCN1CCS(C)(=O)=O [Example 107]	< 100 nM
3) Cc1cnc(Nc2cnn(CC(F)F)c2)nc1NC[C@@H]1C[C@H](F)CN1CCS(C)(=O)=O [Example 120]	1000 to 10000 nM
4) CNC(=O)Cn1cc(Nc2ncc(Cl)c(NC[C@@H]3CCCN3)n2)cn1 [Example 65]	1000 to 10000 nM
5) Cn1cc(Nc2ncc(F)c(NC[C@H]3CCCN3C(=O)CC#N)n2)cn1 [Example 113]	100 to 1000 nM
6) Cn1cc(Nc2ncc(Cl)c(NC[C@@H]3CCCN(C(=O)CC#N)C3)n2)cn1 [Example 135]	< 100 nM

// returns IC50 for CS(=O)(=O)N1CCCC[C@@H]1CNc1nc(Nc2cnn(CCO)c2)ncc1Cl [Example 44] with JAK3 (Homo sapiens, UniProt P52333); value = < 100 nM

// returns IC50 for Cn1cc(Nc2ncc(Cl)c(NC[C@@H]3CCCCN3S(C)(=O)=O)n2)cn1 [Example 36] with JAK3 (Homo sapiens, UniProt P52333); value = 100 to 1000 nM

// returns IC50 for CN1CCCC1CNc1nc(Nc2cnn(C)c2)ncc1Cl (stereo not shown) [Example 62] with JAK3 (Homo sapiens, UniProt P52333); value = 100 to 1000 nM

// returns IC50 for C=CC(=O)N1CCC[C@@H]1CNc1nc(Nc2cnn(C)c2)ncc1Cl [Example 3] with JAK3 (Homo sapiens, UniProt P52333); value = 100 to 1000 nM

// returns IC50 for CS(=O)(=O)N1CC[C@H](CNc2nc(Nc3cnn(CCO)c3)ncc2Cl)C1 [Example 85] with JAK3 (Homo sapiens, UniProt P52333); value = 100 to 1000 nM

// returns IC50 for CC(=O)N1CCCC[C@H]1CNc1nc(Nc2cnn(C)c2)ncc1Cl [Example 32] with JAK3 (Homo sapiens, UniProt P52333); value = 1000 to 10000 nM

// returns IC50 for Cc1cnc(Nc2cnn(C)c2)nc1NC[C@@H]1C[C@H](F)CN1C(=O)CCC#N [Example 104] with JAK3 (Homo sapiens, UniProt P52333); value = 100 to 1000 nM

----------
Reported pIC50 values are given for each entry in this list.
# study system: JAK2 (Homo sapiens)
# Construct: endogenous in cells; mixed lysate 1:2
# experimental protocol: Kinobeads assay with immunodetection, JAK2
# conditions: mixed Molt4/Ramos lysate, read-out: Inhibition values (IC50) JAK2
# Protocol: Determination of the Effect of the Compounds According to the Invention on Janus Kinases (JAK Family) in Kinobeads™ Assays with Immunodetection of Kinases The compounds of the present invention as described in the previous examples were tested in a Kinobeads™ assay as described for ZAP-70 (WO-A 2007/137867). […] Dose response curves for individual kinases were generated and IC50 values calculated. […]
pIC50: −log10 of the molar value.

1. CC(C)NC(=O)Cn1cc(Nc2nccc(NC[C@H]3CCCN3C(=O)CC#N)n2)cn1	< 5.00
2. Cn1cc(Nc2nccc(NC[C@H]3CCCN3C(=O)CCC#N)n2)cn1	5.00 to 6.00
3. Cc1cnc(Nc2cnn(CC(F)F)c2)nc1NC[C@H]1CCN(CCS(C)(=O)=O)C1	5.00 to 6.00
4. Cc1cnc(Nc2cnn(CC(F)F)c2)nc1NC[C@@H]1CCCN1CCS(C)(=O)=O	5.00 to 6.00
5. Cn1cc(Nc2ncc(Cl)c(NC[C@H]3CCN(CCC#N)C3)n2)cn1	5.00 to 6.00

For C=CC(=O)N1CCC[C@H]1CNc1nc(Nc2cnn(CCO)c2)ncc1Cl the compound record lists pIC50 as < 5.00

For Cc1cnc(Nc2cnn(C)c2)nc1NC[C@@H]1CCCN1S(C)(=O)=O the compound record lists pIC50 as 6.00 to 7.00
